- System: A3-KAW (B-Cell Non-Hodgkin's Lymphoma)
- test: combination Emax (second highest fraction inhibited in the dose matrix, 72 h); higher = more inhibition; extreme values may be limits of the assay
The following compounds are shown together with reported combination Emax values.

>  <compound>
COc1cccc(OCCCN)c1-c1cc(Nc2cnc(C#N)cn2)n[nH]1 [Prexasertib] + C=CCn1c(=O)c2cnc(Nc3ccc(N4CCN(C)CC4)cc3)nc2n1-c1cccc(C(C)(C)O)n1 [AZD1775] (first compound max 1 µM, partner max 1 µM)

>  <reported property>
combination Emax

>  <obs value>
1

$$$$
>  <compound>
CC1(C)CCC(CN2CCN(c3ccc(C(=O)NS(=O)(=O)c4ccc(NCC5CCOCC5)c([N+](=O)[O-])c4)c(Oc4cnc5[nH]ccc5c4)c3)CC2)=C(c2ccc(Cl)cc2)C1 [Venetoclax] + Cc1cc2ncnn2cc1Nc1ncc2c(n1)n(C1CCOCC1)c(=O)n2C [AZD7648] (first compound max 1 µM, 7x7, partner max 10 µM)

>  <reported property>
combination Emax

>  <obs value>
0.417

$$$$

Kindly consider the entry below.
## Task Return combination Emax measured with A3-KAW (B-Cell Non-Hodgkin's Lymphoma) given this compound: CN(CCO)CC[C@H](CSc1ccccc1)Nc1ccc(S(=O)(=O)NC(=O)c2ccc(N3CCC([C@@H](O)c4ccccc4-c4ccc(Cl)cc4)CC3)cc2)cc1S(=O)(=O)C(F)(F)F [AZD4320] + Cn1cnc2c(F)c(Nc3ccc(Br)cc3Cl)c(C(=O)NOCCO)cc21 [Selumetinib] (first compound max 1 µM, 7x7, partner max 3 µM)
## Result 0.861

###

The following compounds are shown together with reported Bliss excess values.
- Tested on: NCI-H64 (Small Cell Lung Carcinoma);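 further: after 72 h of two-drug dosing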
- test: Bliss excess, mean over the matrix (fraction); higher = more synergy

Consider the worked cases shown below.
>  <compound>
CS(=O)(=O)CCNCc1ccc(-c2ccc3ncnc(Nc4ccc(OCc5cccc(F)c5)c(Cl)c4)c3c2)o1 [Lapatinib] + C[C@@H](Oc1cc(-c2cnn(C3CCNCC3)c2)cnc1N)c1c(Cl)ccc(F)c1Cl [Crizotinib] (first compound max 10 µM, 7x7, partner max 10 µM)

>  <assayed target>
NCI-H64 (Small Cell Lung Carcinoma);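 further: after 72 h of two-drug dosing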

>  <Bliss excess>
-0.0564

$$$$
>  <compound>
O=C(c1cc(Cc2n[nH]c(=O)c3ccccc23)ccc1F)N1CCN(C(=O)C2CC2)CC1 [Olaparib] + Cc1c2c(nn1C)CSCc1cc(n(C)n1)CSc1cc(c3ccccc3c1)OCCCc1c(C(=O)O)n(C)c3c-2c(Cl)ccc13 [AZD5991] (first compound max 10 µM, 7x7, partner max 1 µM)

>  <assayed target>
NCI-H64 (Small Cell Lung Carcinoma);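 further: after 72 h of two-drug dosing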

>  <Bliss excess>
0.0017

$$$$
>  <compound>
N#Cc1cnc(Nc2cc(NC[C@H]3CNCCO3)c(C(F)(F)F)cn2)cn1 [SRA737] + C=CCn1c(=O)c2cnc(Nc3ccc(N4CCN(C)CC4)cc3)nc2n1-c1cccc(C(C)(C)O)n1 [AZD1775] (first compound max 10 µM, partner max 1 µM)

>  <assayed target>
NCI-H64 (Small Cell Lung Carcinoma);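 further: after 72 h of two-drug dosing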

>  <Bliss excess>
0.0534

$$$$
>  <compound>
Cc1nc(Nc2ncc(C(=O)Nc3c(C)cccc3Cl)s2)cc(N2CCN(CCO)CC2)n1 [Dasatinib] + CC(=O)Nc1cccc(-n2c(=O)n(C3CC3)c(=O)c3c(Nc4ccc(I)cc4F)n(C)c(=O)c(C)c32)c1 [Trametinib] (first compound max 2 µM, 7x7, partner max 1 µM)

>  <assayed target>
NCI-H64 (Small Cell Lung Carcinoma);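 further: after 72 h of two-drug dosing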

>  <Bliss excess>
-0.0498

$$$$
>  <compound>
C=CCn1c(=O)c2cnc(Nc3ccc(N4CCN(C)CC4)cc3)nc2n1-c1cccc(C(C)(C)O)n1 [AZD1775] + C[C@@H]1COCCN1C2=NC(=NC(=C2)C3(CC3)[S@](=N)(=O)C)C4=C5C=CNC5=NC=C4 [AZD6738] (first compound max 1 µM, partner max 10 µM)

>  <assayed target>
NCI-H64 (Small Cell Lung Carcinoma);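 further: after 72 h of two-drug dosing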

>  <Bliss excess>
0.0015

$$$$

Kindly consider the entry below.
## Task Could you share which Bliss excess value was measured for N#Cc1cnc(Nc2cc(NC[C@H]3CNCCO3)c(C(F)(F)F)cn2)cn1 [SRA737] + Nc1ccn([C@@H]2O[C@H](CO)[C@@H](O)C2(F)F)c(=O)n1 [Gemcitabine] (first compound max 10 µM, 7x7, partner max 0.3 µM) ?
## Result 0.0476

###

- System: PANC-10-05 (Pancreatic Carcinoma)
- test: combination Emax (second highest fraction inhibited in the dose matrix, 72 h); higher = more inhibition; extreme values may be limits of the assay
combination Emax below 0.4 gives not met; combination Emax at or above it gives met.

Past entries and their recorded results:
>  <compound>
CCc1c2c(nc3ccc(O)cc13)-c1cc3c(c(=O)n1C2)COC(=O)[C@]3(O)CC [SN-38] + CN(C)CCCOc1ccc(-c2ccc3ncc4c(c3c2)n(C2CCOCC2)c(=O)n4C)cn1 [AZD0156] (first compound max 0.3 µM, 7x7, partner max 1 µM)

>  <answer label>
met

$$$$
>  <compound>
COc1cccc(OCCCN)c1-c1cc(Nc2cnc(C#N)cn2)n[nH]1 [Prexasertib] + CCc1c2c(nc3ccc(O)cc13)-c1cc3c(c(=O)n1C2)COC(=O)[C@]3(O)CC [SN-38] (first compound max 1 µM, 7x7, partner max 0.3 µM)

>  <answer label>
met

$$$$
>  <compound>
C=CCn1c(=O)c2cnc(Nc3ccc(N4CCN(C)CC4)cc3)nc2n1-c1cccc(C(C)(C)O)n1 [AZD1775] + C[C@@H]1COCCN1C2=NC(=NC(=C2)C3(CC3)[S@](=N)(=O)C)C4=C5C=CNC5=NC=C4 [AZD6738] (first compound max 1 µM, partner max 10 µM)

>  <answer label>
met

$$$$
>  <compound>
O=C(c1cc(Cc2n[nH]c(=O)c3ccccc23)ccc1F)N1CCN(C(=O)C2CC2)CC1 [Olaparib] + CC1(C)CCC(CN2CCN(c3ccc(C(=O)NS(=O)(=O)c4ccc(NCC5CCOCC5)c([N+](=O)[O-])c4)c(Oc4cnc5[nH]ccc5c4)c3)CC2)=C(c2ccc(Cl)cc2)C1 [Venetoclax] (first compound max 10 µM, 7x7, partner max 1 µM)

>  <answer label>
not met

$$$$
>  <compound>
COc1cccc2c1C(=O)c1c(O)c3c(c(O)c1C2=O)C[C@@](O)(C(=O)CO)C[C@@H]3O[C@H]1C[C@H](N)[C@H](O)[C@H](C)O1 [Doxorubicin] + Cc1cc2ncnn2cc1Nc1ncc2c(n1)n(C1CCOCC1)c(=O)n2C [AZD7648] (first compound max 1 µM, 7x7, partner max 10 µM)

>  <answer label>
met

$$$$
>  <compound>
COc1cc2ncnc(Nc3ccc(F)c(Cl)c3)c2cc1OCCCN1CCOCC1 [Gefitinib] + CC(C)n1c(=O)n(C)c2cnc3cc(F)c(-c4ccc(OCCCN5CCCCC5)nc4)cc3c21 [AZD1390] (first compound max 10 µM, 7x7, partner max 0.3 µM)

>  <answer label>
not met

$$$$
>  <compound>
Cc1nc(-c2cn3c(n2)-c2ccc(-c4cnn(C(C)(C)C(N)=O)c4)cc2OCC3)n(C(C)C)n1 [Taselisib] + O=C(Nc1ccc2[nH]nc(-c3ccncc3)c2c1)[C@@H]1CCN(CC(=O)N2CCN(c3ccc(-c4ncccn4)cc3)CC2)C1 [SCH772984] (first compound max 10 µM, 7x7, partner max 5 µM)

>  <answer label>
met

$$$$
>  <compound>
Cc1c2c(nn1C)CSCc1cc(n(C)n1)CSc1cc(c3ccccc3c1)OCCCc1c(C(=O)O)n(C)c3c-2c(Cl)ccc13 [AZD5991] + CC(=O)O[C@H]1C(=O)[C@@]2(C)[C@H]([C@H](OC(=O)c3ccccc3)[C@]3(O)C[C@H](OC(=O)[C@H](O)[C@@H](NC(=O)c4ccccc4)c4ccccc4)C(C)=C1C3(C)C)[C@]1(OC(C)=O)CO[C@@H]1C[C@@H]2O [Paclitaxel] (first compound max 1 µM, 7x7, partner max 3 µM)

>  <answer label>
met

$$$$
>  <compound>
N#Cc1cnc(Nc2cc(NC[C@H]3CNCCO3)c(C(F)(F)F)cn2)cn1 [SRA737] + Nc1ccn([C@@H]2O[C@H](CO)[C@@H](O)C2(F)F)c(=O)n1 [Gemcitabine] (first compound max 10 µM, 7x7, partner max 0.3 µM)

>  <answer label>
met

$$$$
>  <compound>
Cc1c2c(nn1C)CSCc1cc(n(C)n1)CSc1cc(c3ccccc3c1)OCCCc1c(C(=O)O)n(C)c3c-2c(Cl)ccc13 [AZD5991] + Cn1cnc2c(F)c(Nc3ccc(Br)cc3Cl)c(C(=O)NOCCO)cc21 [Selumetinib] (first compound max 1 µM, 7x7, partner max 3 µM)

>  <answer label>
met

$$$$

## Task Tell me whether combination Emax is at least 0.4 here: C[C@@H]1COCCN1c1cc(C2([S@](C)(=N)=O)CC2)nc(-c2ccnc3[nH]ccc23)n1 [AZD6738] + C1CC(C1)(C(=O)[O-])C(=O)[O-].N.N.[Pt+2] [Carboplatin] (first compound max 10 µM, 7x7, partner max 10 µM)
## Result met

## Task Tell me whether combination Emax is at least 0.4 here: O=C(c1cc(Cc2n[nH]c(=O)c3ccccc23)ccc1F)N1CCN(C(=O)C2CC2)CC1 [Olaparib] + CN(CC[C@H](CSC1=CC=CC=C1)NC2=C(C=C(C=C2)S(=O)(=O)NC(=O)C3=CC=C(C=C3)N4CCC(CC4)[C@H](C5=CC=CC=C5C6=CC=C(C=C6)Cl)O)S(=O)(=O)C(F)(F)F)CCO [AZD4320] (first compound max 10 µM, 7x7, partner max 1 µM)
## Result not met
